System: NCI-H226 lung
Assay: NCI-60 one-dose screen, 48 h
Details: 10 µM unless noted
This is part of a sample that, as a whole, favours compounds with a hit. Of some 83,000 tested, about 20% had one in any assay. The source made the active and inactive calls. Rule for the calls: active = growth percent below 10; inactive = the rest.
Bench note: report the call from YES = active, NO = inactive

Request: Fill in: this test's call for `O=C(Nc1ccc(Cl)cc1)c1cc2c(cc1O)[nH]c1ccccc12` is ___
Response: NO

Request: Fill in: this test's call for `CCOc1nc(-c2ccccc2)cc2c(O)c(C(=O)n3nc(C)cc3C)[nH]c(=O)c12` is ___
Response: NO

Request: Fill in: this test's call for CC1=C(C(=O)Nc2ccccc2)C(c2ccc3c(c2)OCCO3)NC(=O)N1 (stereo not given) is ___
Response: NO

* * *

Test system: NCI-H522 lung
Assay: NCI-60 one-dose screen, 48 h
Conditions: 10 µM unless noted
The panel holds about 83,000 compounds, 20% with a hit somewhere; the sample as a whole holds those more often. Activity calls are given as the source filed them. Rule for the calls: active = growth percent below 10; inactive = the rest.
Bench note: report the call from yes for active, no for inactive

Here are 10 compounds together with their reported answers.
>  <Compound>
CCOC(=O)c1c2c(c(C)n1Cc1ccccc1)-c1nc(N)ncc1CC2

>  <Assigned Category>
no

$$$$
>  <Compound>
CCN(CC)c1ccc(N=Nc2cc(Cl)ccc2Cl)c(NC(=O)CCC(=O)O)c1

>  <Assigned Category>
no

$$$$
>  <Compound>
CCOC(=O)C1C(=O)OC2CCCCC21 (stereo not given)

>  <Assigned Category>
no

$$$$
>  <Compound>
COC1CC2CCC(C)C(O)(O2)C(=O)C(=O)N2CCCCC2C(=O)OC(C(C)CC2CCC(O)C(OC)C2)CC(=O)C(C)C=C(C)C(O)C(OC)C(=O)C(C)CC(C)/C=C/C=C/C=C1C (stereo not given)

>  <Assigned Category>
no

$$$$
>  <Compound>
Nc1ccc2c3c(cccc13)-c1ccccc1-2

>  <Assigned Category>
no

$$$$
>  <Compound>
COc1ccc(-c2cc(Cc3cccs3)c(=O)n(Cn3cncn3)n2)cc1

>  <Assigned Category>
no

$$$$
>  <Compound>
O=C(CSc1nc2c(n1Nc1ccccc1)-c1ccccc1SC2)Nc1nc(-c2ccc(Cl)cc2)cs1

>  <Assigned Category>
no

$$$$
>  <Compound>
COc1cc(C2NC(c3ccc(Cl)cc3)C(C)/C(=N/NC(N)=S)C2C)cc(OC)c1OC (stereo not given)

>  <Assigned Category>
no

$$$$
>  <Compound>
CC(=O)n1c2ccccc2c2ccccc21

>  <Assigned Category>
no

$$$$
>  <Compound>
COc1cc(/C=C2\COc3ccc(O)cc3C2=O)cc(OC)c1

>  <Assigned Category>
no

$$$$

Turning to the following compound.
Request: Fill in: this test's call for `O=C(CCc1nnc2sc(-c3ccc(Cl)cc3Cl)nn12)c1nc2ccccc2[nH]1` is ___
Response: yes

* * *

Provide the reported growth of each item.
System: TK-10 renal
Experiment: NCI-60 one-dose screen, 48 h (100 = growth as untreated, 0 = no growth, -100 = all killed)
Conditions: 10 µM unless noted
About 83,000 compounds went through this panel and 20% of them were active in at least one assay; those are over-represented in the sample as a whole.
Answers are plain numbers, in %.

>  <Molecule>
COc1cc2c(cc1OCCCCCn1c(-c3ccc(OCc4ccccc4)cc3)nc3cc(N4CCOCC4)ccc31)N=C[C@@H]1CCCN1C2=O

>  <Measurement Unit>
%

>  <growth>
-13.3

$$$$
>  <Molecule>
CCn1c2ccccc2c2ccc(C(C)=O)cc21

>  <Measurement Unit>
%

>  <growth>
105

$$$$
>  <Molecule>
COc1cc(/C=C2\CCC/C(=C\c3ccc(OCC4CO4)c(OC)c3)C2=O)ccc1OCC1CO1 (stereo unspecified)

>  <Measurement Unit>
%

>  <growth>
58.5

$$$$
>  <Molecule>
Nc1ccc(C2=NN(c3ccccc3)C(c3ccc(Cl)cc3)C2)cc1 (stereo unspecified)

>  <Measurement Unit>
%

>  <growth>
74.2

$$$$
>  <Molecule>
O=C(CCc1nnc2sc(-c3ccc(Cl)cc3Cl)nn12)c1nc2ccccc2[nH]1

>  <Measurement Unit>
%

>  <growth>
-83.2

$$$$

Provide the reported growth of each entry below, same order.
1. Fc1ccc(-c2nc(Nc3ccc(-c4nc5ccccc5[nH]4)cc3)nc(N3CCOCC3)n2)cc1
2. CCCCCCC(C)(O)c1ccccc1 (stereo unspecified)
3. OCCOc1c(Cl)cc(Cl)cc1Cl
4. Cc1cc(C)n(C(=O)c2nn(-c3ccc(Cl)cc3)cc2O)n1
5. Cc1c(C(N)=O)sc2c1c(=O)n(Cc1ccccc1)c1nnc(S(=O)(=O)CC(=O)Nc3ccc(Cl)cc3)n21

Response:
-94.4
106
113
35.7
18

Provide the reported growth of each entry below, same order.
1. O=C(CCc1nnc2sc(Cc3ccccc3Cl)nn12)c1nc2ccccc2[nH]1
2. O=C(Nc1ccc(Cl)cc1)c1cc2c(cc1O)[nH]c1ccccc12
3. S=C1SCN(Cc2ccccc2)CN1Cc1ccco1
4. O=C(c1ccccc1)c1ccccc1Cl
5. COc1ccc(OC)c2c1[nH]c(=O)c1c3ccccc3cn21

Response:
1. 144
2. 4.83
3. 28.7
4. 94.6
5. -83.4

Provide the reported growth of each entry below, same order.
1. CC[N+](CC)(CCOCCOCC[N+](CC)(CC)Cc1ccc([N+](=O)[O-])cc1)Cc1ccc([N+](=O)[O-])cc1
2. O=C(Cc1ccccn1)C(F)(F)C(F)(F)C(F)(F)F
3. Cc1nn(-c2ccc(Br)cc2)c2nc3c(nc12)C(=O)C(=O)c1ccccc1-3
4. [O-]/[N+](=C\C=C\c1ccccc1)c1ccccc1
5. O=C(/C=C/c1cccnc1)NCCCCC1CCCN(C(=O)c2ccccc2)C1 (stereo unspecified)
6. CN1CCN(Cc2ccc(NC(=O)c3[nH]ncc3Nc3ccnc4ccnn34)cc2)CC1
7. CNc1ccc(CSc2ccc(Cl)cc2)cc1

Response:
95
117
140
144
103
103
126

* * *

Test system: MOLT-4 leukemia
Assay: NCI-60 one-dose screen, 48 h (100 = growth as untreated, 0 = no growth, -100 = all killed)
Conditions: 10 µM unless noted
Compounds without any hit were thinned out: in the full panel of roughly 83,000, 20% have a hit.
Measured Endpoint: growth (%)
Give bare numbers, in %.

Provide the reported growth of each entry below, same order.
1. COc1cc2c(c(OC)c1OC)CCc1cnoc1-2
2. CN(C(=O)c1ccccc1)N(C)C(=O)c1ccccc1
3. COC(=O)C[C@@H]1CC=CC(=O)/C1=C(O)/C=C/c1ccccc1
4. CC(C)COCC(CN(Cc1ccccc1)c1ccccc1)N1CCCC1 (stereo unspecified)
5. O=C(/C(=N/O)S(=O)(=O)c1ccccc1)c1cccs1
6. ClC1=C(Cl)C(Cl)=C(Cl)C1=Cc1ccc(Cl)cc1

Response:
[127, 88.6, 3.09, 28.8, 104, 0.492]

* * *

Tested on: OVCAR-5 ovarian
Assay: NCI-60 one-dose screen, 48 h (100 = growth as untreated, 0 = no growth, -100 = all killed)
Conditions: 10 µM unless noted
The panel holds about 83,000 compounds, 20% with a hit somewhere; the sample as a whole holds those more often.
Provide the reported growth of each item.
Answers are plain numbers, in %.

Solved cases (6 shown):
>  <Molecule>
O=C1C(Cl)=C(N=Nc2c(Cl)c(O)c3ccccc3c2O)C(=O)c2ccccc21

>  <growth [%]>
121

$$$$
>  <Molecule>
Cn1cc(-c2nc(-c3c[nH]c4ncc(F)cc34)cs2)c2cccnc21

>  <growth [%]>
93.4

$$$$
>  <Molecule>
S=c1[nH]nc2sc3ccccc3n12

>  <growth [%]>
108

$$$$
>  <Molecule>
Nc1cc(Cl)c(S(N)(=O)=O)cc1S(N)(=O)=O

>  <growth [%]>
102

$$$$
>  <Molecule>
O=C(Nc1nc(-c2ccccc2)cs1)c1cc(O)c(O)c(O)c1

>  <growth [%]>
89.4

$$$$
>  <Molecule>
COc1ccc(/C=C/C(=O)Nc2cccnc2Nc2ccc(F)cc2)cc1

>  <growth [%]>
104

$$$$

Provide the reported growth of each entry below, same order.
1. C[n+]1ccc(C#N)c2ccccc21
2. COc1cccc(/C=C2\COc3ccc(O)c(O)c3C2=O)c1OC

Response:
[103, 2.35]

* * *

System: KM12 colon
Assay: NCI-60 one-dose screen, 48 h
Conditions: 10 µM unless noted
The panel holds about 83,000 compounds, 20% with a hit somewhere; the sample as a whole holds those more often. Active and inactive are the calls of the source. The calls were made as follows: active = growth percent below 10; inactive = the rest.
Bench note: report the call from label 1 = active, label 0 = inactive

>  <Compound>
O=C(Cc1ccccn1)C(F)(F)C(F)(F)C(F)(F)F

>  <Assigned Category>
label 0

$$$$
>  <Compound>
S=C(Nc1ccc(C2=NCCN2)cc1)Nc1ccc(C2=NCCN2)cc1

>  <Assigned Category>
label 0

$$$$
>  <Compound>
N#Cc1cccc(/C=C(/C(=O)c2ccccc2)c2ccccc2)c1

>  <Assigned Category>
label 0

$$$$
>  <Compound>
O=C(O)c1ccc(NC(=O)c2cccc(Nc3ccnc(C(F)(F)F)c3)c2)cc1

>  <Assigned Category>
label 0

$$$$
>  <Compound>
NC(=O)c1ccccc1NC(=O)c1ccccc1Cl

>  <Assigned Category>
label 0

$$$$

Turning to the following compound.
Request: Fill in: this test's call for `Cc1c(C(N)=O)sc2ncn(Cc3ccccc3)c(=O)c12` is ___
Response: label 0
